Reference for the values: patent EP2970434B1

Target: T1, factor VIIa-tissue factor (soluble human tissue factor 100 nM and factor VIIa 50 nM) (human), P08709
T1 chain 1: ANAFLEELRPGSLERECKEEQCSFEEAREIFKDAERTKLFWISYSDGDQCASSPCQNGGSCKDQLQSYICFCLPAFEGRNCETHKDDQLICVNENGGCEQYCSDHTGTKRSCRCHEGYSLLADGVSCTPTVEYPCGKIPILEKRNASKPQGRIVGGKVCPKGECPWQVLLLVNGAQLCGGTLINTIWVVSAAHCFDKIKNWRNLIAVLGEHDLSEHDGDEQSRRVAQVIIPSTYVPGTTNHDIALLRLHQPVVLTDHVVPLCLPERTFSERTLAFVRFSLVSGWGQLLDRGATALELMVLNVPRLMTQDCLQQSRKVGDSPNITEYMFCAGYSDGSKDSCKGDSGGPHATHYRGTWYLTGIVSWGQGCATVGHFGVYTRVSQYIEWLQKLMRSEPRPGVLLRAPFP
T1 chain 2: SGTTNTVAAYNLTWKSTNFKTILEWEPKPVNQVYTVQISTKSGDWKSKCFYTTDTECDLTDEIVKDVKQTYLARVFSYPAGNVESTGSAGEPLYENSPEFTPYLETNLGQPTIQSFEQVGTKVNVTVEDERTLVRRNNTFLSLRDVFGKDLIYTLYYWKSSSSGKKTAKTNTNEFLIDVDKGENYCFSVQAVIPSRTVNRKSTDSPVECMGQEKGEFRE
Assay: factor VIIa-tissue factor amidolytic activity inhibition, S-2288 substrate
Settings: remark: other sources report otherwise
recorded-metric: Ki (µM)
Answers are plain numbers, in µM.

The reported Ki of the binder plasmin-inhibiting polypeptide comprising the amino acid sequence set forth in SEQ ID NO:3 (designed binder, Expressed in E. coli; also called DM; 60B) NAEICLLPLDTGPCRARLLRYYYDRYTQSCRQFLYGGCEGNANNFYTWEACDDACWRIEK was 5.87
